These measurements were taken from the supplement of paper PMC3334620.

measured.on: Yap3 (UniProt P38749)
Sequence: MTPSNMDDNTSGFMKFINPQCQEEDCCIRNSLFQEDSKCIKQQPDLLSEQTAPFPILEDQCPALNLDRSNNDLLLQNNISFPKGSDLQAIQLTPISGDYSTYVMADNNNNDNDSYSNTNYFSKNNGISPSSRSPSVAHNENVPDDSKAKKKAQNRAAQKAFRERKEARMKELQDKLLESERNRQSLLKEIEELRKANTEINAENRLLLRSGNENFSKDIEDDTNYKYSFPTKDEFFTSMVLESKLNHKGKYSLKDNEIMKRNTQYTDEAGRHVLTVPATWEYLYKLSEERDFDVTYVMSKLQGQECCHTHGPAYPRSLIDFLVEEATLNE
assay.remarks: PBM E-score (8-mer binding enrichment) (E-score (-0.5 to 0.5)); higher = stronger / more preferred TF binding
setup.conditions: protein concentration: 100 nM; construct: GST-full length
Over roughly 33,000 sequences, “E-score (-0.5 to 0.5)” has its median near -0.0034; the highest 2% begin near 0.25. The entries come from a sample that favours the highest values as a whole.

chain	measured.on	PBM E-score
AGAAATTA	Yap3 (UniProt P38749)	0.202
TCCGCAAA	Yap3 (UniProt P38749)	0.0357
GCAAATTA	Yap3 (UniProt P38749)	0.262
ACAATAAA	Yap3 (UniProt P38749)	0.106
ATAATAAC	Yap3 (UniProt P38749)	0.173
CATAACAA	Yap3 (UniProt P38749)	0.18
AAGCATTA	Yap3 (UniProt P38749)	0.106
CTATATCA	Yap3 (UniProt P38749)	0.264
GGCTGCAC	Yap3 (UniProt P38749)	-0.206
ACATATTG	Yap3 (UniProt P38749)	0.11
CAAACTGC	Yap3 (UniProt P38749)	0.0735
GCAGAGAC	Yap3 (UniProt P38749)	-0.322
AATATAAG	Yap3 (UniProt P38749)	0.353
GGATGATA	Yap3 (UniProt P38749)	0.122
CATCTACG	Yap3 (UniProt P38749)	-0.0208
GTATGAAA	Yap3 (UniProt P38749)	0.29
GTATGAGA	Yap3 (UniProt P38749)	0.158
GCAGTGAA	Yap3 (UniProt P38749)	0.225
TATAAAAA	Yap3 (UniProt P38749)	0.265
ATAATAAT	Yap3 (UniProt P38749)	0.26
CCAAAATA	Yap3 (UniProt P38749)	0.211
ATAATAAG	Yap3 (UniProt P38749)	0.194
GCTTATTA	Yap3 (UniProt P38749)	0.232
ATATATCA	Yap3 (UniProt P38749)	0.118
AATATAAT	Yap3 (UniProt P38749)	0.179
AATATAAA	Yap3 (UniProt P38749)	0.282
TATATAAA	Yap3 (UniProt P38749)	0.274
CCCAGTTC	Yap3 (UniProt P38749)	-0.0993
CTCCAGGC	Yap3 (UniProt P38749)	-0.0968
GTATGATA	Yap3 (UniProt P38749)	0.282
CTAATAAC	Yap3 (UniProt P38749)	0.15
CTTTGATA	Yap3 (UniProt P38749)	0.189
GTAATAAC	Yap3 (UniProt P38749)	0.188
CGAGAGTA	Yap3 (UniProt P38749)	0.0233
TACGAAAA	Yap3 (UniProt P38749)	0.144
CGCGATTC	Yap3 (UniProt P38749)	0.198
CAAATGAA	Yap3 (UniProt P38749)	0.14
CCACATAC	Yap3 (UniProt P38749)	0.249
GTCAAGTA	Yap3 (UniProt P38749)	-0.12
GTGTGATA	Yap3 (UniProt P38749)	0.203
CTATCTCA	Yap3 (UniProt P38749)	-0.0511
CACGAAAA	Yap3 (UniProt P38749)	0.176
ACTTATAC	Yap3 (UniProt P38749)	0.174
CGCTGGTC	Yap3 (UniProt P38749)	-0.307
GTATTAGA	Yap3 (UniProt P38749)	0.217
TATAACAA	Yap3 (UniProt P38749)	0.265
GTATGAAC	Yap3 (UniProt P38749)	0.0322
GGTGGCGA	Yap3 (UniProt P38749)	-0.0578
ATGAATGA	Yap3 (UniProt P38749)	0.106
GGTCCCAA	Yap3 (UniProt P38749)	-0.151
ATGAATGC	Yap3 (UniProt P38749)	0.0737
ATTAGAGC	Yap3 (UniProt P38749)	0.116
ATTTGATC	Yap3 (UniProt P38749)	-0.0998
CTGTGATA	Yap3 (UniProt P38749)	-0.106
GAAATGAC	Yap3 (UniProt P38749)	0.259
CCATATTA	Yap3 (UniProt P38749)	0.24
CTAGTATC	Yap3 (UniProt P38749)	0.0604
ACTTATTC	Yap3 (UniProt P38749)	0.162
ACTTATTA	Yap3 (UniProt P38749)	0.263
CAGTAGCA	Yap3 (UniProt P38749)	-0.0517
CGTGGCTC	Yap3 (UniProt P38749)	-0.321
AACAATTC	Yap3 (UniProt P38749)	0.106
CGACGTCA	Yap3 (UniProt P38749)	0.0828
CGCATTGA	Yap3 (UniProt P38749)	0.125
GAAATGCC	Yap3 (UniProt P38749)	0.0869
ATATCTCA	Yap3 (UniProt P38749)	0.268
GATATAAA	Yap3 (UniProt P38749)	0.21
AGCGATTA	Yap3 (UniProt P38749)	0.00413
ATGAATGG	Yap3 (UniProt P38749)	0.268
GCCAATTA	Yap3 (UniProt P38749)	0.193
AACTGGAC	Yap3 (UniProt P38749)	0.0415
CCTTATTA	Yap3 (UniProt P38749)	0.33
CCAAATTA	Yap3 (UniProt P38749)	0.192
CATAACCA	Yap3 (UniProt P38749)	0.0668
CTAAGTAC	Yap3 (UniProt P38749)	0.016
ATCGGGCG	Yap3 (UniProt P38749)	-0.21
GTACAGGA	Yap3 (UniProt P38749)	0.0424
CTAATAAA	Yap3 (UniProt P38749)	0.178
ACTAGCAT	Yap3 (UniProt P38749)	-0.0172
ACTTATAT	Yap3 (UniProt P38749)	0.29
CATATAAA	Yap3 (UniProt P38749)	0.183
CTATTATA	Yap3 (UniProt P38749)	0.145
